Molecular target: Type-1 angiotensin II receptor (Oryctolagus cuniculus) (UniProt P34976)
Sequence (whole entry): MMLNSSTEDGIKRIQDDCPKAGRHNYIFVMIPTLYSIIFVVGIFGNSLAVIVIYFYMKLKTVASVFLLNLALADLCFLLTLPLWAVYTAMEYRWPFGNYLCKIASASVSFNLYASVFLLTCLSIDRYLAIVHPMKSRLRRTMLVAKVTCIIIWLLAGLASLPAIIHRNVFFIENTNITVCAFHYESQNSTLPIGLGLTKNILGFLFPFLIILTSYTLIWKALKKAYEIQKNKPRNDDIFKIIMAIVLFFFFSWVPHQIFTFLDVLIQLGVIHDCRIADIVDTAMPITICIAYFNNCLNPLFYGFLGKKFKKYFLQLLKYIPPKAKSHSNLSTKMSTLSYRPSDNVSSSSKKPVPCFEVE
Test: Binding affinity to angiotensin 2 receptor in rabbit aorta
Numbered stars: 1 amine (or outer) side, 2 acyl side, 3 side chain; on linkers, the order of the positions; unused ones are H or OH. Square brackets hold non-standard residues; d marks the D form. Peptide text beside a SMILES is read from it. X3 = N#[N+]c1ccc(C[C@@H](N[*:1])C(=O)[*:2])cc1; X2 = Nc1c(I)cc(C[C@@H](N[*:1])C(=O)[*:2])cc1I; Sar = CNCC(=O)O
Kindly supply the reported Activity values for the records listed here.
Phrase the answer as number then unit, nothing more needed.

Give reported Activity value for CNCC(=O)N[C@@H](CCCNC(=N)N)C(=O)N[C@H](C(=O)N[C@H](Cc1ccc([N+]#N)cc1)C(=O)N[C@H](C(=O)N[C@@H](Cc1cnc[nH]1)C(=O)N1CCC[C@H]1C(=O)N[C@@H](Cc1ccccc1)C(=O)O)C(C)C)C(C)C (H-[Sar]RV[X3]VHPF-OH)
0.66%

Give reported Activity value for CNCC(=O)N[C@@H](CCCNC(=N)N)C(=O)N[C@H](C(=O)N[C@H](Cc1cc(I)c(N)c(I)c1)C(=O)N[C@H](C(=O)N[C@@H](Cc1cnc[nH]1)C(=O)N1CCC[C@H]1C(=O)N[C@@H](Cc1ccccc1)C(=O)O)C(C)C)C(C)C (H-[Sar]RV[X2]VHPF-OH)
2.7%

Give reported Activity value for CNCC(=O)N[C@@H](CCCNC(=N)N)C(=O)N[C@H](C(=O)N[C@H](Cc1ccc(N)cc1)C(=O)N[C@H](C(=O)N[C@@H](Cc1cnc[nH]1)C(=O)N1CCC[C@H]1C(=O)N[C@@H](Cc1ccccc1)C(=O)O)C(C)C)C(C)C
15%

Give reported Activity value for CNCC(=O)N[C@@H](CCCNC(=N)N)C(=O)N[C@H](C(=O)N[C@H](Cc1ccc(N=[N+]=[N-])cc1)C(=O)N[C@H](C(=O)N[C@@H](Cc1cnc[nH]1)C(=O)N1CCC[C@H]1C(=O)N[C@@H](Cc1ccccc1)C(=O)O)C(C)C)C(C)C
0.26%
